- target_desc: NRAS WT (Homo sapiens (Human), UniProt P01111+P62937)
- Sequence (P01111 whole entry, one chain of several): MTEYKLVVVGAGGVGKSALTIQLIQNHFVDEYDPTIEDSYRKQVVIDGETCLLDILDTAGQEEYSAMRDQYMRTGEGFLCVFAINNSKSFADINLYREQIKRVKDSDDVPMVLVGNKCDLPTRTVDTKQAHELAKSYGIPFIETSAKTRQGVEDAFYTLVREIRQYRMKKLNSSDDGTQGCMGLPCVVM
- assay_protocol: Ras-Raf (BRAF RBD) disruption / FRET / MOA assay, NRAS WT
- Assay type: biochemical
- condition_label: read-out: IC50* NRAS WT FRET data
Field: IC50. Provide a value for each of the compounds that follow.

(Q) What value of IC50 has been reported for the following compound? C=CC(=O)N1CCOC2(CCN(C(=O)N(C)[C@H](C(=O)N[C@H]3Cc4nc(cs4)-c4ccc5c(c4)c(c(-c4cccnc4[C@H](C)OC)n5CC)CC(C)(C)COC(=O)[C@@H]4CCCN(N4)C3=O)C(C)C)CC2)C1 (atropisomer, axis not shown) [Example A695]
(A) 100 to 1000 nM

(Q) What value of IC50 has been reported for the following compound? C=CC(=O)N1CCO[C@H]2CN(C(=O)N(C)[C@H](C(=O)N[C@H]3Cc4cccc(c4)-c4ccc5c(c4)c(c(-c4cccnc4[C@H](C)OC)n5CC)CC(C)(C)COC(=O)[C@@H]4CCCN(N4)C3=O)C(C)C)C[C@H]21 (atropisomer, axis not shown) [Example A610]
(A) 100 to 1000 nM

(Q) What value of IC50 has been reported for the following compound? C=CC(=O)N1CC[C@H](C(=O)N(C)[C@H](C(=O)N[C@H]2Cc3cc(O)cc(c3)-c3ccc4c(c3)c(c(-c3cccnc3)n4[C@H](C)C#N)CC(C)(C)COC(=O)[C@@H]3CCCN(N3)C2=O)C(C)C)C1 [Example A193]
(A) 1000 to 10000 nM

(Q) What value of IC50 has been reported for the following compound? CCn1c(-c2cccnc2[C@H](C)OC)c2c3cc(ccc31)-c1cccc(c1)C[C@H](NC(=O)[C@H](C(C)C)N(C)C(=O)C1(F)CCN(C(=O)C#CC(C)(C)N(C)C)CC1)C(=O)N1CCC[C@H](N1)C(=O)OCC(C)(C)C2 (atropisomer, axis not shown) [Example A699]
(A) 100 to 1000 nM

----------
- target_desc: NRAS Q61K (Homo sapiens (Human), UniProt P01111+P62937, Q61K)
- Sequence (P01111 whole entry Q61K): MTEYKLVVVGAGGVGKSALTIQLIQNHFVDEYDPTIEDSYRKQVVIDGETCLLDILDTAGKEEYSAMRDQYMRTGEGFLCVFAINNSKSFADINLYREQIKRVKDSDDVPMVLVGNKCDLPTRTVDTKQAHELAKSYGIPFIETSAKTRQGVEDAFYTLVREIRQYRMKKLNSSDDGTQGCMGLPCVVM
- Sequence (P62937 whole entry): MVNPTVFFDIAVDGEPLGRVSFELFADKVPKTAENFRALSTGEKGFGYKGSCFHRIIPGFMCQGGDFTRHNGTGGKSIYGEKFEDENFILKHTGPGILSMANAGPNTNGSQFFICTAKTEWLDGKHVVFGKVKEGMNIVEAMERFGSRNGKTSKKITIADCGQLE
- assay_protocol: Ras-Raf (BRAF RBD) disruption / FRET / MOA assay, NRAS Q61K
- Assay type: biochemical
- condition_label: NRAS Q61K; Ras-Raf disruption/FRET/MOA assay; read-out: IC50* NRAS Q61K FRET data
pIC50: −log10 of the molar value.
experimental_endpoint: pIC50

(Q) What value of pIC50 has been reported for the following molecule? CCn1c(-c2cccnc2[C@H](C)OC)c2c3cc(ccc31)-c1cccc(c1)C[C@H](NC(=O)[C@@H](COC1CN(C(=O)C#CC(C)(C)N(C)CCO)C1)C(C)C)C(=O)N1CCC[C@H](N1)C(=O)OCC(C)(C)C2 (atropisomer, axis not shown) [Example A657]
(A) < 5.00

(Q) What value of pIC50 has been reported for the following molecule? CCn1c(-c2cccnc2[C@H](C)OC)c2c3cc(ccc31)-c1cc(F)cc(c1)C[C@H](NC(=O)[C@@H](COC1CN(C(=O)C#CC(C)(C)N(C)C)C1)C(C)C)C(=O)N1CCC[C@H](N1)C(=O)OCC(C)(C)C2 (atropisomer, axis not shown) [Example A403]
(A) < 5.00

(Q) What value of pIC50 has been reported for the following molecule? C=CC(=O)N1CC(N2CCN(C(=O)N(C)[C@H](C(=O)N[C@H]3Cc4nc(cs4)-c4ccc5c(c4)c(c(-c4cccnc4[C@H](C)OC)n5CC)CC(C)(C)COC(=O)[C@@H]4CCCN(N4)C3=O)C(C)C)CC2)C1 (atropisomer, axis not shown) [Example A668]
(A) 7.00 to 8.00

(Q) What value of pIC50 has been reported for the following molecule? CO[C@@H](C)c1ncccc1-c1c2c3cc(ccc3n1CC(F)(F)F)-c1nc(ns1)C[C@H](NC(=O)[C@@H](COC1CN(C(=O)C#CC(C)(C)N(C)C)C1)C(C)C)C(=O)N1CCC[C@H](N1)C(=O)OCC(C)(C)C2 (atropisomer, axis not shown) [Example A590]
(A) 5.00 to 6.00

----------
- target_desc: NRAS G12C (Homo sapiens (Human), UniProt P01111+P62937, G12C)
- Sequence (P01111 whole entry G12C): as the sequence (P01111 whole entry Q61K) above, with G12C, K61Q counted along it
- Sequence (P62937 whole entry): as the sequence (P62937 whole entry) above
- assay_protocol: Ras-Raf (BRAF RBD) disruption / FRET / MOA assay, NRAS G12C
- Type: biochemical
- condition_label: read-out: IC50* NRAS G12C FRET data
pIC50: −log10 of the molar value.
Field: pIC50. Provide a value for each of the compounds that follow.

(Q) What value of pIC50 has been reported for the following compound? CCn1c(-c2cccnc2[C@H](C)OC)c2c3cc(ccc31)-c1cc(O)cc(c1)C[C@H](NC(=O)[C@H](C(C)C)N(C)C(=O)[C@H]1CCN(C(=O)C#CCN3[C@H](C)COC[C@@H]3C)C1)C(=O)N1CCC[C@H](N1)C(=O)OCC(C)(C)C2 (atropisomer, axis not shown)
(A) > 8.00

(Q) What value of pIC50 has been reported for the following compound? C=CC(=O)N1C[C@@H](C)N(C(=O)N(C)[C@H](C(=O)N[C@H]2Cc3nc(cs3)-c3ccc4c(c3)c(c(-c3cccnc3[C@H](C)OC)n4CC)CC(C)(C)COC(=O)[C@@H]3CCCN(N3)C2=O)C(C)C)C[C@@H]1C (atropisomer, axis not shown)
(A) 7.00 to 8.00

(Q) What value of pIC50 has been reported for the following compound? CCn1c(-c2cccnc2[C@H](C)OC)c2c3cc(ccc31)-c1csc(n1)C[C@H](NC(=O)[C@H](F)COC1CN(C(=O)C#CC(C)(C)N(C)C)C1)C(=O)N1CCC[C@H](N1)C(=O)OCC(C)(C)C2 (atropisomer, axis not shown)
(A) > 8.00

(Q) What value of pIC50 has been reported for the following compound? CCn1c(-c2cccnc2[C@H](C)OC)c2c3cc(ccc31)-c1csc(n1)C[C@H](NC(=O)[C@H](C(C)C)N(C)C(=O)N1CCCOC13CN(C(=O)C#CC(C)(C)N(C)C)C3)C(=O)N1CCC[C@H](N1)C(=O)OCC(C)(C)C2 (atropisomer, axis not shown)
(A) 5.00 to 6.00

----------
- target_desc: K-Ras G12C (Homo sapiens (Human), UniProt P01116+P62937, G12C)
- Sequence (P01116-2 other isoform, or with tags, fused parts or gaps G12C, one chain of several): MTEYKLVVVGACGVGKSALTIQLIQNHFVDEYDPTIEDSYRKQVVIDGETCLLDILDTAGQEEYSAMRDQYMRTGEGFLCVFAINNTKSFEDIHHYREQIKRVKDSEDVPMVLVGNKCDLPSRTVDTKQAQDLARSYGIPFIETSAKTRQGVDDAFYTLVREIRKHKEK
- assay_protocol: Ras-Raf (BRAF RBD) disruption / FRET / MOA assay, KRAS G12C
- Type: biochemical
- condition_label: KRAS G12C; Ras-Raf disruption/FRET/MOA assay; read-out: IC50* KRAS G12C FRET data
experimental_endpoint: IC50

(Q) What value of IC50 has been reported for the following compound? C=CC(=O)N1CC[C@H](C(=O)N(C)[C@H](C(=O)N[C@H]2Cc3cc(O)cc(c3)-c3ccc4c(c3)c(c(-c3cc(CN(C)C)nn3C)n4CC)CC(C)(C)COC(=O)[C@@H]3CCCN(N3)C2=O)C(C)C)C1
(A) 0.1 to 1 µM

(Q) What value of IC50 has been reported for the following compound? C=CC(=O)N1CC[C@H](C(=O)N(C)[C@H](C(=O)N[C@H]2Cc3coc(n3)-c3ccc4c(c3)c(c(-c3cccnc3[C@H](C)OC)n4CC)CC(C)(C)COC(=O)[C@@H]3CCCN(N3)C2=O)C(C)C)C1 (atropisomer, axis not shown)
(A) 0.1 to 1 µM

(Q) What value of IC50 has been reported for the following compound? CCn1c(-c2cccnc2[C@H](C)OC)c2c3cc(ccc31)-c1cc(O)cc(c1)C[C@H](NC(=O)[C@H](C(C)C)N(C)C(=O)[C@H]1CCN(C(=O)/C=C/C(F)(F)F)C1)C(=O)N1CCC[C@H](N1)C(=O)OCC(C)(C)C2
(A) < 0.01 µM

(Q) What value of IC50 has been reported for the following compound? CCn1c(-c2cccnc2[C@H](C)OC)c2c3cc(ccc31)-c1cc(cc(C(F)F)c1)C[C@H](NC(=O)[C@H](C1CCCC1)N(C)C(=O)[C@H]1CCN(C(=O)C#CC(C)(C)N3CCC3)C1)C(=O)N1CCC[C@H](N1)C(=O)OCC(C)(C)C2 (atropisomer, axis not shown)
(A) 0.01 to 0.1 µM

(Q) What value of IC50 has been reported for the following compound? C=CC(=O)N1CC[C@]2(CCN([C@H](C(=O)N[C@H]3Cc4cccc(c4)-c4ccc5c(c4)c(c(-c4cccnc4[C@H](C)OC)n5CC)CC(C)(C)COC(=O)[C@@H]4CCCN(N4)C3=O)C(C)C)C2=O)C1 (atropisomer, axis not shown)
(A) 0.1 to 1 µM

(Q) What value of IC50 has been reported for the following compound? CCn1c(-c2cccnc2[C@H](C)OC)c2c3cc(ccc31)-c1cccc(c1)C[C@H](NC(=O)[C@H](C(C)C)N1CC[C@]3(CCN(C(=O)C#C[C@@]4(N(C)C)CCOC4)C3)C1=O)C(=O)N1CCC[C@H](N1)C(=O)OCC(C)(C)C2 (atropisomer, axis not shown)
(A) 0.01 to 0.1 µM

(Q) What value of IC50 has been reported for the following compound? CCn1c(-c2cccnc2[C@H](C)OC)c2c3cc(ccc31)-c1nc(cs1)C[C@H](NC(=O)[C@H](C1CCCC1)N(C)C(=O)[C@H]1CCN(C(=O)C#CC(C)(C)N3CCC3)C1)C(=O)N1CCC[C@H](N1)C(=O)OCC(C)(C)C2 (atropisomer, axis not shown)
(A) 0.01 to 0.1 µM

(Q) What value of IC50 has been reported for the following compound? C=CC(=O)N1CCN(C(=O)N(C)[C@H](C(=O)N[C@H]2Cc3nc(cs3)-c3ccc4c(c3)c(c(-c3cccnc3[C@H](C)OC)n4CC(F)(F)F)CC(C)(C)COC(=O)[C@@H]3CCCN(N3)C2=O)C(C)C)CC12CC2 (atropisomer, axis not shown)
(A) 0.01 to 0.1 µM
